Taken from patent US20240043400A1.

system.name: dopamine D1 receptor (Homo sapiens, UniProt P21728)
Sequence (P21728 whole entry): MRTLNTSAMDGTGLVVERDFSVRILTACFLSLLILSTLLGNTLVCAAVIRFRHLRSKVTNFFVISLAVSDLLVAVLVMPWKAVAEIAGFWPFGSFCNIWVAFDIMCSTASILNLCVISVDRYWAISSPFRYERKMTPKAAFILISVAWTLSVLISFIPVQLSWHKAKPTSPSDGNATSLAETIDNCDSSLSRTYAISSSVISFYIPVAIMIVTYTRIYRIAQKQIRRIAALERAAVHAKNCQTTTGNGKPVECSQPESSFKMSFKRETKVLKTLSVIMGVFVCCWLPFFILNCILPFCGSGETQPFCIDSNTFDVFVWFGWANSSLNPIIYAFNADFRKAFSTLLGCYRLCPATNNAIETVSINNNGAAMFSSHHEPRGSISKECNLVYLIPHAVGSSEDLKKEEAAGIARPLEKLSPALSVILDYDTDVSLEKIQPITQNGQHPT
assay.explanation: cAMP HTRF potentiation assay (in the presence of dopamine)
experimental.setup: potentiation of cAMP with [EC20] of dopamine (1.1 nM); LMtk (Ltk−) mouse fibroblast cells expressing the dopamine D1 receptor
This listing pairs compounds with measured EC50.

Answered examples (5):
[
  {
    "compound": "C[C@H]1[C@H]2CCC[C@@H]([C@H](O)C(F)(F)F)[C@@H]2CCN1C(=O)Cc1c(Cl)cnc(C(O)C(F)F)c1Cl (single isomer, unassigned) [Example 15-B]",
    "EC50": "25.1 nM"
  },
  {
    "compound": "C[C@H]1[C@H]2CCC[C@@H](CCC(C)(C)O)[C@@H]2CCN1C(=O)Cc1c(Cl)cnc(CO)c1Cl",
    "EC50": "50.1 nM"
  },
  {
    "compound": "COc1ccc(Cl)c(CC(=O)N2CC[C@H]3[C@H]([C@H](O)C(F)(F)F)CCC[C@@H]3[C@@H]2C)c1C#N",
    "EC50": "39.8 nM"
  },
  {
    "compound": "C[C@H]1[C@@H]2CCC[C@H]([C@H](O)C(F)(F)F)[C@H]2C[C@H](CO)N1C(=O)Cc1c(Cl)ccc2c1c(Cl)nn2C",
    "EC50": "50.1 nM"
  },
  {
    "compound": "CC(O)c1ncc(Cl)c(CC(=O)N2CC[C@H]3[C@H]([C@H](O)C(F)(F)F)CCC[C@@H]3[C@@H]2C)c1Cl (single isomer, unassigned) [Example 9-A]",
    "EC50": "39.8 nM"
  }
]

INPUT: Field request: EC50 | item: COc1ccc(C#N)c(CC(=O)N2CC[C@@H]3[C@H](CCC[C@H]3C(O)C(F)F)[C@@H]2C)c1Cl (single isomer, unassigned) [Example 6-A]
OUTPUT: 50.1 nM

INPUT: Field request: EC50 | item: C[C@H]1[C@H]2CCC[C@@H]([C@H](O)C(F)(F)F)[C@@H]2CCN1C(=O)Cc1c(Cl)ccc(OC(F)F)c1Cl
OUTPUT: 200 nM

INPUT: Field request: EC50 | item: COc1ccc(C#N)c(CC(=O)N2CC[C@H]3[C@H](CCC(C)(C)O)CCC[C@@H]3[C@@H]2C)c1Cl
OUTPUT: 50.1 nM

###

system.name: dopamine D1 receptor (Homo sapiens)
assay.explanation: cAMP HTRF potentiation assay (in the presence of dopamine)
experimental.setup: potentiation of cAMP with [EC20] of dopamine (1.1 nM); LMtk (Ltk−) mouse fibroblast cells expressing the dopamine D1 receptor
pEC50: −log10 of the molar value.
# cutoff 7 applies to pEC50; >= gives YES, < gives NO

Past entries and their recorded results:
[
  {
    "compound": "C[C@H]1[C@H]2CCC[C@@H]([C@H](O)C(F)(F)F)[C@@H]2C[C@H](CO)N1C(=O)Cc1c(Cl)ccc2c1c(Cl)nn2C [Example 26-A]",
    "classification": "NO"
  },
  {
    "compound": "COc1ccc(C#N)c(CC(=O)N2CC[C@H]3[C@H]([C@@H](O)C(F)(F)F)CCC[C@@H]3[C@@H]2C)c1Cl [Example 1-B]",
    "classification": "NO"
  },
  {
    "compound": "COc1ccc(C#N)c(CC(=O)N2CC[C@@H]3[C@H](CCC[C@H]3C(O)C(F)F)[C@@H]2C)c1Cl (single isomer, unassigned) [Example 6-B]",
    "classification": "NO"
  },
  {
    "compound": "C[C@H]1[C@H]2CCC[C@@H](CCC(C)(C)O)[C@@H]2CCN1C(=O)Cc1c(Cl)ccc2c1c(Cl)nn2C [Example 22]",
    "classification": "NO"
  },
  {
    "compound": "COc1ncc(Cl)c(CC(=O)N2CC[C@H]3[C@H]([C@H](O)C(F)(F)F)CCC[C@@H]3[C@@H]2C)c1Cl [Example 3]",
    "classification": "YES"
  },
  {
    "compound": "C[C@H]1[C@H]2CCC[C@@H]([C@H](O)C(F)(F)F)[C@@H]2CCN1C(=O)Nc1c(Cl)cccc1Cl [Example 10]",
    "classification": "YES"
  },
  {
    "compound": "C[C@H]1[C@H]2CCC[C@@H]([C@H](O)C(F)(F)F)[C@@H]2CCN1C(=O)Cc1c(Cl)cnc(CO)c1Cl [Example 12]",
    "classification": "YES"
  },
  {
    "compound": "C[C@H]1[C@H]2CCC[C@@H]([C@H](O)C(F)(F)F)[C@@H]2CCN1C(=O)Cc1c(Cl)cnc(C(O)C(F)F)c1Cl (single isomer, unassigned) [Example 15-A]",
    "classification": "YES"
  }
]

INPUT: Determine whether this compound has pEC50 no lower than 7: COc1ccc(C#N)c(CC(=O)N2CC[C@@H]3[C@H](CCC[C@H]3C(C)(O)C(F)(F)F)[C@@H]2C)c1Cl (single isomer, unassigned) [Example 7-A]
OUTPUT: NO

INPUT: Determine whether this compound has pEC50 no lower than 7: C[C@H]1[C@H]2CCC[C@@H]([C@H](O)C(F)(F)F)[C@@H]2CCN1C(=O)Cc1c(Cl)cc(F)c2[nH]nc(Cl)c12 [Example 14]
OUTPUT: YES

INPUT: Determine whether this compound has pEC50 no lower than 7: CC(O)c1ncc(Cl)c(CC(=O)N2CC[C@@H]3[C@H](CCC[C@H]3[C@](C)(O)C(F)F)[C@@H]2C)c1Cl (single isomer, unassigned) [Example 18-A]
OUTPUT: NO

INPUT: Determine whether this compound has pEC50 no lower than 7: C[C@H]1[C@H]2CCC[C@@H]([C@H](O)C(F)(F)F)[C@@H]2CCN1C(=O)Cc1c(Cl)cnc(C(C)(C)O)c1Cl [Example 13]
OUTPUT: YES

###

This listing pairs molecules with measured % GABAA inhibition.
system.name: human GABAA receptor α1β2 and γ2 subunits (Homo sapiens, UniProt P14867+P18507+P47870)
Construct: expressed in transfected cells
Sequence (P14867 28-456): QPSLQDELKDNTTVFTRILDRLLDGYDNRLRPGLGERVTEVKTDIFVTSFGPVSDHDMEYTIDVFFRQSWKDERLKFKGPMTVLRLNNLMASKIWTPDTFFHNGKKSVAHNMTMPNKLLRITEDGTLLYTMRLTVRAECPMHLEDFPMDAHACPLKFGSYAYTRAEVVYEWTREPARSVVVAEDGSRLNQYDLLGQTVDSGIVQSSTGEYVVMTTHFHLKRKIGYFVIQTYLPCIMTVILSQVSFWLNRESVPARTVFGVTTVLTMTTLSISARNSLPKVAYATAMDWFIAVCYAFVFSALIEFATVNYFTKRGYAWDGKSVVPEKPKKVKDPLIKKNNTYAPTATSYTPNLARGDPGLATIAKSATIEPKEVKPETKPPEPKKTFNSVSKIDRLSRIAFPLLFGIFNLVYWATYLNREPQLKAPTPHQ
Sequence (P47870 25-512 limits assumed): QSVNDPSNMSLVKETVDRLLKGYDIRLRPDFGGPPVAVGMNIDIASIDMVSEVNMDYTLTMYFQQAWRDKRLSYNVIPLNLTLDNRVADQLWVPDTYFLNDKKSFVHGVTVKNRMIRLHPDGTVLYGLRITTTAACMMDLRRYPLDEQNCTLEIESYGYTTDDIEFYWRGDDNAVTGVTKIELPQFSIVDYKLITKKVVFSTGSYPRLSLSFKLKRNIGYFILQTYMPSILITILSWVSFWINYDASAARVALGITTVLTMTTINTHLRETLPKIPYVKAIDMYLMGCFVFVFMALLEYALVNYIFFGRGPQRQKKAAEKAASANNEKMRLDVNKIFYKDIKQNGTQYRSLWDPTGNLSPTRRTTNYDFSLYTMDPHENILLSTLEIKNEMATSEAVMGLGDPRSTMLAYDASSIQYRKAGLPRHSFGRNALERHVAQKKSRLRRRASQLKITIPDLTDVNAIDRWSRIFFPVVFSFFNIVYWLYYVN
Sequence (P18507 40-475): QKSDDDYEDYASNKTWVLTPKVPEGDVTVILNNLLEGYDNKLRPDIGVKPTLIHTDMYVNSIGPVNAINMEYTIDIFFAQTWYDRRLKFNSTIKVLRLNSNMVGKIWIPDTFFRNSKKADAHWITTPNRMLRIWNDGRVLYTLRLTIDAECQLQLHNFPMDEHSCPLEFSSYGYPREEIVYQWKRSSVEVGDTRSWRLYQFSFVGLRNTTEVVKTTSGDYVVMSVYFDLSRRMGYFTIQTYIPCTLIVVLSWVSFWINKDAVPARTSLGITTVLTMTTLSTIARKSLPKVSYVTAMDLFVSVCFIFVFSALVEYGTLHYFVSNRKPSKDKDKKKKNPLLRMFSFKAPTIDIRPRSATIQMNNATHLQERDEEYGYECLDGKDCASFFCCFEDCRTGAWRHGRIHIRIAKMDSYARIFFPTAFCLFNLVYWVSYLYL
assay.explanation: Automated patch clamp studies on the GABAA receptor cells
Format: cell-based
experimental.setup: 10 μM compound; 15 μM GABA; CHO-K1 cells; Table B
State just the number; it will be interpreted in %.

INPUT: Field request: % GABAA inhibition | item: CC(O)c1ncc(Cl)c(CC(=O)N2CC[C@H]3[C@H]([C@H](O)C(F)(F)F)CCC[C@@H]3[C@@H]2C)c1Cl (single isomer, unassigned) [Example 9-A]
OUTPUT: −14.1

INPUT: Field request: % GABAA inhibition | item: CC(O)c1ncc(Cl)c(CC(=O)N2CC[C@H]3[C@H]([C@H](O)C(F)(F)F)CCC[C@@H]3[C@@H]2C)c1Cl (single isomer, unassigned) [Example 9-B]
OUTPUT: −8.4

INPUT: Field request: % GABAA inhibition | item: COc1ccc(C#N)c(CC(=O)N2CC[C@@H]3[C@H](CCC[C@H]3C(C)(O)C(F)(F)F)[C@@H]2C)c1Cl (single isomer, unassigned) [Example 7-B]
OUTPUT: 1.4

INPUT: Field request: % GABAA inhibition | item: COc1ccc(C#N)c(CC(=O)N2CC[C@@H]3[C@H](CCC[C@H]3C(C)(O)C(F)(F)F)[C@@H]2C)c1Cl (single isomer, unassigned) [Example 7-A]
OUTPUT: 7.4

INPUT: Field request: % GABAA inhibition | item: C[C@H]1[C@H]2CCCC([C@@H](O)C(F)(F)F)[C@@H]2CCN1C(=O)Cc1c(Cl)ccc2c1c(Cl)nn2C (single isomer, unassigned) [Example 8-B]
OUTPUT: −1.2

INPUT: Field request: % GABAA inhibition | item: C[C@H]1[C@H]2CCCC([C@@H](O)C(F)(F)F)[C@@H]2CCN1C(=O)Cc1c(Cl)ccc2c1c(Cl)nn2C (single isomer, unassigned) [Example 8-A]
OUTPUT: 2.0

INPUT: Field request: % GABAA inhibition | item: COc1ccc(C#N)c(CC(=O)N2CC[C@@H]3[C@H](CCC[C@H]3C(O)C(F)F)[C@@H]2C)c1Cl (single isomer, unassigned)
OUTPUT: 10.9

###

This listing pairs molecules with measured inhibition at 10 µM.
system.name: human GABAA receptor α1β2 and γ2 subunits (Homo sapiens, UniProt P14867+P18507+P47870)
Construct: expressed in transfected cells
assay.explanation: Automated patch clamp studies on the GABAA receptor cells
Format: cell-based
experimental.setup: CHO-K1, 10 μM compound, 15 μM GABA, Table B
State just the number; it will be interpreted in %.

INPUT: Field request: inhibition at 10 µM | item: C[C@H]1[C@H]2CCC[C@@H]([C@H](O)C(F)(F)F)[C@@H]2CCN1C(=O)Nc1c(Cl)cccc1Cl
OUTPUT: 8.5

INPUT: Field request: inhibition at 10 µM | item: COc1ccc(C#N)c(CC(=O)N2CC[C@H]3[C@H]([C@@H](O)C(F)(F)F)CCC[C@@H]3[C@@H]2C)c1Cl
OUTPUT: 4.9
